# Measured On: adenosine A2A receptor (Homo sapiens (Human), UniProt P29274)
# Sequence (P29274 whole entry): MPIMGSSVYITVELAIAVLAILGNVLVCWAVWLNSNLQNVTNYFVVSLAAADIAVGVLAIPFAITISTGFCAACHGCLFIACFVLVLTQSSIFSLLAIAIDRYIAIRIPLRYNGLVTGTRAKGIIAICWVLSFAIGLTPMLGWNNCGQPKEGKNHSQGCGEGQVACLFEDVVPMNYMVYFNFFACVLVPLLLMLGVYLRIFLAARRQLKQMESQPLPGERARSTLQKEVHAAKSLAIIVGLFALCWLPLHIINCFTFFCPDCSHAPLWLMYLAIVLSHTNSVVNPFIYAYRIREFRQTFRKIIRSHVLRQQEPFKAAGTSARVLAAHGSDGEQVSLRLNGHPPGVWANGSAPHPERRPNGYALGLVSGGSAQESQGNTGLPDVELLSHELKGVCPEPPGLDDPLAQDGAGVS
# Measurement Description: Adenosine receptor activity assay (Table 1), A2A activity
# Format: biochemical
# Stated Conditions: read-out: Ave A2A cAMP IC50
Experimental Endpoint: IC50

Recorded IC50, per entry:
COC[C@@H]1CCN(C(=O)c2nc(N[C@@H](C)c3ccccn3)nc3cc(C)sc23)C1 [Example Z467]	100 to 500 nM
C[C@H](Nc1nc(C(=O)N2CCC2)c2sccc2n1)c1cncc(Cl)c1 [Example Z232]	100 to 500 nM

Reported IC50 ( CC(=O)N[C@H]1CCN(C(=O)c2nc(N[C@@H](C)c3cncc(F)c3)nc3ccsc23)C1 [Example Z331] ) = 100 to 500 nM

The measured IC50 associated with Cc1cc2nc(N[C@@H](C)c3cncc(F)c3)nc(C(=O)N3CCN(C(=O)NC(C)C)C3)c2s1 [Example Z593] reads 50 to 100 nM

The measured IC50 associated with CNc1cc2nc(N[C@@H](C)c3cccnc3)nc(C(=O)N3CC[C@H](O)C3)c2s1 [Example Z188] reads > 500 nM

Summary for this compound, Cc1cc2nc(N[C@@H](C)c3ccccn3)nc(C(=O)N3CC[C@H](O)C3)c2s1 [Example Z282] : IC50 is > 500 nM

Please fill in: IC50 reported for C[C@H](Nc1nc(C(=O)NCC2CCC2)c2sccc2n1)c1ccccn1 [Example Z193] = 50 to 100 nM
